B1: Poly(rC)-binding protein 1, residues 278 to 350; numbered along this chain, Q15365 (parent)
chain: TQTTHELTIPNNLIGCIIGRQGANINEIRQMSGAQIKIANPVEGSSGRQVTITGSAASISLAQYLINARLSSE

# Variants of: B1
# assay notes: abundance fitness (aPCA) (normalised: wild type 0, dead -1); higher = more abundant; growth selection in yeast, the domain comes from the species named
# condition description: Homo sapiens
value kind: abundance fitness
Give bare numbers.

Examples with their reported abundance fitness follow.
E27H = -0.09
A56C = -0.102
I18G = -0.565
G54F = -0.507
G19N = -0.655
L65W = -0.166
I52S = -0.574
I18E = -0.118
G47F = -0.116
I59A = -0.044

Provide the reported abundance fitness of each entry below, same order.
1. I36K
2. T51G
3. I52E

Output line:
[-1.14, -0.574, -0.732]

Provide the reported abundance fitness of each entry below, same order.
1. L13M
2. R29I

Output line:
1: 0.05; 2: -0.081
